assay: Cmax in Beagle dog at 240 mg/kg, po administered as single dose measured after 0.25 to 24 hrs post dose by LC/MS/MS method; type: ADME, organism-based, Canis lupus familiaris; design: dose 240 mg/kg, route oral; conditions: in vivo

SMILES_INPUT: CS(=O)(=O)C[C@@H](N)c1ccc(-c2ccc3ncnc(Nc4ccc(OCc5cccc(F)c5)c(Cl)c4)c3c2)o1
Cmax, ng/mL: 2100

SMILES_INPUT: CN(C)[C@H](CS(C)(=O)=O)c1ccc(-c2ccc3ncnc(Nc4ccc(OCc5cccc(F)c5)c(Cl)c4)c3c2)o1
Cmax, ng/mL: 3100

----------
experiment: Clearance in Beagle dog at 240 mg/kg, po dosed for 14 days by LC/MS/MS method; type: ADME, organism-based, Canis lupus familiaris; design: dose 240 mg/kg, route oral; settings: in vivo
QUANTITY_KIND: CL/F (mL/min)

SMILES_INPUT: CN(C)[C@H](CS(C)(=O)=O)c1ccc(-c2ccc3ncnc(Nc4ccc(OCc5cccc(F)c5)c(Cl)c4)c3c2)o1
QUANTITY_KIND: CL/F
READING: 432

----------
pIC50: −log10 of the molar value.
A set of molecules tested on Epidermal growth factor receptor (Homo sapiens), with measured pIC50:
QUANTITY_KIND: pIC50

MOLECULE: CN(C)[C@H](CS(C)(=O)=O)c1ccc(-c2ccc3ncnc(Nc4ccc(OCc5cccc(F)c5)c(Cl)c4)c3c2)o1
QUANTITY_KIND: pIC50
READING: 8.39
--
MOLECULE: CS(=O)(=O)C[C@H](N)c1ccc(-c2ccc3ncnc(Nc4ccc(OCc5cccc(F)c5)c(Cl)c4)c3c2)o1
QUANTITY_KIND: pIC50
READING: 7.87
--
MOLECULE: CCNC(CS(C)(=O)=O)c1ccc(-c2ccc3ncnc(Nc4ccc(OCc5cccc(F)c5)c(Cl)c4)c3c2)o1 (racemic)
QUANTITY_KIND: pIC50
READING: 7.83
--
MOLECULE: CCCCCCOC(=O)N[C@H](CS(C)(=O)=O)c1ccc(-c2ccc3ncnc(Nc4ccc(OCc5cccc(F)c5)c(Cl)c4)c3c2)o1
QUANTITY_KIND: pIC50
READING: 6.96
--
MOLECULE: CN(C)[C@@H](CS(C)(=O)=O)c1ccc(-c2ccc3ncnc(Nc4ccc(OCc5cccc(F)c5)c(Cl)c4)c3c2)o1
QUANTITY_KIND: pIC50
READING: 7.52

----------
pIC50 values for the molecules below.
experiment: cells; conditions: Homo sapiens, Calu-3, 72 h
Description: Cytotoxicity against human Calu3 cells assessed as inhibition of cell growth after 72 hrs by sulforhodamine B assay
pIC50: −log10 of the molar value.

MOLECULE: CS(=O)(=O)CCNCc1ccc(-c2ccc3ncnc(Nc4ccc(OCc5cccc(F)c5)c(Cl)c4)c3c2)o1 [LAPATINIB]
pIC50: 6.64

MOLECULE: CN(C)[C@H](CS(C)(=O)=O)c1ccc(-c2ccc3ncnc(Nc4ccc(OCc5cccc(F)c5)c(Cl)c4)c3c2)o1
pIC50: 6.64

MOLECULE: CS(=O)(=O)C[C@@H](N)c1ccc(-c2ccc3ncnc(Nc4ccc(OCc5cccc(F)c5)c(Cl)c4)c3c2)o1
pIC50: 6.66

----------
assay: Tmax in Beagle dog at 240 mg/kg, po dosed for 14 days by LC/MS/MS method; assay type: ADME, organism-based, Canis lupus familiaris; parameters: dose 240 mg/kg, route oral; conditions: in vivo

SMILES_INPUT: CN(C)[C@H](CS(C)(=O)=O)c1ccc(-c2ccc3ncnc(Nc4ccc(OCc5cccc(F)c5)c(Cl)c4)c3c2)o1
SCALE_UNIT: h
Tmax: 4.5

----------
AUC(0-t) at 24 h values for the molecules below.
experiment: AUC (0 to 24 hrs) in Beagle dog at 240 mg/kg, po administered as single dose measured after 0.25 to 24 hrs post dose by LC/MS/MS method; type: ADME, organism-based, Canis lupus familiaris; set-up: time < 24 hr, dose 240 mg/kg, route oral; settings: plasma
QUANTITY_KIND: AUC(0-t) at 24 h (ng·h/mL)

SMILES_INPUT: CN(C)[C@H](CS(C)(=O)=O)c1ccc(-c2ccc3ncnc(Nc4ccc(OCc5cccc(F)c5)c(Cl)c4)c3c2)o1
QUANTITY_KIND: AUC(0-t) at 24 h
READING: 29800

SMILES_INPUT: CS(=O)(=O)C[C@@H](N)c1ccc(-c2ccc3ncnc(Nc4ccc(OCc5cccc(F)c5)c(Cl)c4)c3c2)o1
QUANTITY_KIND: AUC(0-t) at 24 h
READING: 20300

----------
assay: AUC (0 to infinity) in Beagle dog at 240 mg/kg, po dosed for 14 days by LC/MS/MS method; assay type: ADME, organism-based, Canis lupus familiaris; parameters: time infinity, dose 240 mg/kg, route oral; settings: plasma

SMILES_INPUT: CN(C)[C@H](CS(C)(=O)=O)c1ccc(-c2ccc3ncnc(Nc4ccc(OCc5cccc(F)c5)c(Cl)c4)c3c2)o1
SCALE_UNIT: ng·h/mL
AUC(0-inf): 30600

----------
assay: Mean residence time in Beagle dog at 240 mg/kg, po administered as single dose measured after 0.25 to 24 hrs post dose by LC/MS/MS method; type: ADME, organism-based, Canis lupus familiaris; parameters: dose 240 mg/kg, route oral; conditions: in vivo
QUANTITY_KIND: MRT (h)

SMILES_INPUT: CS(=O)(=O)C[C@@H](N)c1ccc(-c2ccc3ncnc(Nc4ccc(OCc5cccc(F)c5)c(Cl)c4)c3c2)o1
QUANTITY_KIND: MRT
READING: 6.8
--
SMILES_INPUT: CN(C)[C@H](CS(C)(=O)=O)c1ccc(-c2ccc3ncnc(Nc4ccc(OCc5cccc(F)c5)c(Cl)c4)c3c2)o1
QUANTITY_KIND: MRT
READING: 6.1

----------
Tmax values for the compounds below.
assay: Tmax in Beagle dog at 240 mg/kg, po administered as single dose measured after 0.25 to 24 hrs post dose by LC/MS/MS method; format: ADME, organism-based, Canis lupus familiaris; design: dose 240 mg/kg, route oral; details: in vivo

SMILES_INPUT: CN(C)[C@H](CS(C)(=O)=O)c1ccc(-c2ccc3ncnc(Nc4ccc(OCc5cccc(F)c5)c(Cl)c4)c3c2)o1
Tmax (h): 4
//
SMILES_INPUT: CS(=O)(=O)C[C@@H](N)c1ccc(-c2ccc3ncnc(Nc4ccc(OCc5cccc(F)c5)c(Cl)c4)c3c2)o1
Tmax (h): 5

----------
assay: AUC (0 to 24 hrs) in Beagle dog at 240 mg/kg, po dosed for 14 days by LC/MS/MS method; type: ADME, organism-based, Canis lupus familiaris; design: time < 24 hr, dose 240 mg/kg, route oral; details: plasma

SMILES_INPUT: CN(C)[C@H](CS(C)(=O)=O)c1ccc(-c2ccc3ncnc(Nc4ccc(OCc5cccc(F)c5)c(Cl)c4)c3c2)o1
AUC at 24 h, ng·h/mL: 29800
